The origin of these recorded values is PubChem BioAssay (NCI).

Each item that follows carries a reported GI50.
# Test system: NCI-H23 lung
# assay_method_text: NCI tumour cell line growth inhibition, 48 h

Input line: Find GI50 (NCI-H23 lung) for the entry c1ccc2c3c([nH]c2c1)C(c1ccc(C2NCCc4c2[nH]c2ccccc42)cc1)NCC3 (stereo not given)
Output line: 1.65 µM

Input line: And then `O=C1NC(=NCCCc2ccccc2)S/C1=C\c1ccc2ncccc2c1` , what is it?
Output line: 6.06 µM

Input line: And then O=C1Cc2cc(C(=O)NC3C[C@H]4CC[C@@H](C3)N4S(=O)(=O)CC3CCN(CCCC(F)(F)F)CC3)c(Cl)cc2N1 (stereo not given in full) , what is it?
Output line: > 100 µM

Input line: And then `CN1CSC(=S)N(Cc2ccccc2)C1` , what is it?
Output line: 14.1 µM

Input line: And then `CCC(=O)c1c(C(F)(F)F)n([O-])c2cc(F)c(F)cc2[n+]1=O` , what is it?
Output line: 0.807 µM

###

# Test system: M14 melanoma
# assay_method_text: NCI tumour cell line growth inhibition, 48 h; in the data active = GI50 below about 0.43 µM; inactive = the rest
Returns: one label drawn from active, inactive

CN(Cc1cnc2nc(N)nc(N)c2n1)c1ccc(C(=O)NC(CCC(=O)O)C(=O)O)cc1Br (stereo unspecified) | active
COc1cc2cc(Oc3ccc(NC(=O)Nc4ccc(Cl)c(Cl)c4)cc3)c(C)nc2cc1OC | inactive
O=C(Nc1nc2ccccc2s1)Nc1ccc([N+](=O)[O-])cc1Cl | inactive

Input line: Please let me know the test result on file for `C#CCOc1ccc2ncnc(Nc3ccc(NC(=O)C=C)cc3)c2c1` .
Output line: inactive

Input line: And then `COc1cc2c3c(n(C)c(=O)c2cc1OC)-c1ccc(C#N)cc1C3=O` , what is it?
Output line: inactive

Input line: And then `CO[C@H]1C[C@@H]2CC[C@@H](C)[C@@](O)(O2)C(=O)C(=O)N2CCCC[C@H]2C(=O)O[C@H]([C@H](C)C[C@@H]2CC[C@@H](OCCO)[C@H](OC)C2)CC(=O)[C@H](C)C=C(C)[C@@H](O)[C@@H](OC)C(=O)[C@H](C)C[C@H](C)/C=C/C=C/C=C1C` , what is it?
Output line: inactive

Input line: And then `O=C(COc1cccc(/C=C2\CSc3ccccc3C2=O)c1)Nc1nccs1` , what is it?
Output line: inactive

Input line: And then `O=C1NC(=NCCCc2ccccc2)S/C1=C\c1ccc2ncccc2c1` , what is it?
Output line: inactive

Input line: And then `O=C1/C=C/[C@@H](O)[C@@H]2C[C@@H](O)C[C@H]2/C=C/CCC[C@H](C(F)(F)F)O1` , what is it?
Output line: active

Input line: And then `CN1CCN(CCCOc2cccc3nc(Nc4ccc(Cl)c(C(F)(F)F)c4)ccc23)CC1` , what is it?
Output line: inactive

Input line: And then `CC1=C(Nc2ccc(N3CCN(C)CC3)cc2)C(=O)c2cncnc2C1=O` , what is it?
Output line: inactive

###

# Test system: NCI-H460 lung
# assay_method_text: NCI tumour cell line growth inhibition, 48 h
measurement_kind: TGI

COc1cc(C2c3cc4c(cc3OC(NCCO)C2C)OCO4)cc(OC)c1OC (stereo not drawn) | > 100000 nM
COc1ccc(/C(C#N)=C2C=C/C(=N/O)c3ccccc3\2)cc1 | 1230 nM

Input line: Could you tell me which TGI is on file for `CN(C)CCNC(=O)c1cccc2c1Oc1c(cccc1[N+](=O)[O-])O2` ?
Output line: 2660 nM

###

# Tested on: DMS 114 small cell lung
# assay_method_text: NCI tumour cell line growth inhibition, 48 h
measurement_kind: TGI (µM)
Hi! Could you send only the number? It should be in µM, unit omitted.

C[C@]12CCC3[C@@H](CC[C@@H]4c5nonc5CC[C@]34C)C1CC[C@@H]2O (stereo not given in full) | 71.2

Input line: Could you tell me which TGI is on file for `O=c1[nH]cnc2c1nnn2CCCCCCCCCCCCn1nnc2c(=O)[nH]cnc21` ?
Output line: 39.4

###

Each item that follows carries a reported TGI.
# System: OVCAR-3 ovarian
# assay_method_text: NCI tumour cell line growth inhibition, 48 h

These recorded examples may help you get a feel for the data.
COc1ccc(/C(C#N)=C2C=C/C(=N/O)c3ccccc3\2)cc1 | 2.79 µM
O=C1Nc2ccccc2/C1=c1\[nH]c(=O)/c(=C\c2ccc(OCc3ccccc3)cn2)[nH]c1=O | > 100 µM
CO[C@H]1C[C@@H]2CC[C@@H](C)[C@@](O)(O2)C(=O)C(=O)N2CCCC[C@H]2C(=O)O[C@H]([C@H](C)C[C@@H]2CC[C@@H](OCCO)[C@H](OC)C2)CC(=O)[C@H](C)C=C(C)[C@@H](O)[C@@H](OC)C(=O)[C@H](C)C[C@H](C)/C=C/C=C/C=C1C | 16.7 µM
COc1ccc2c(OCc3nnc4ccc(-c5ccccc5)nn34)ccnc2c1 | > 100 µM

Now consider a different compound.
Input line: Could you tell me which TGI is on file for CC(=O)C1=C(O)C2C3c4c[nH]c5cccc(c45)CC3C(C)(C)N2C1=O (stereo not given) ?
Output line: 74.3 µM

###

# Test system: M14 melanoma
# assay_method_text: NCI tumour cell line growth inhibition, 48 h
Each item that follows carries a reported TGI.

These recorded examples may help you get a feel for the data.
CC(C)C1N(C)c2ccc(Cl)cc2[C@H]2c3ccccc3CCN12 (some centres not stated) | > 100 µM
NC(Cc1ccc(S(=O)(=O)O)cc1)C(=O)NC(Cc1ccc(S(=O)(=O)O)cc1)C(=O)O (configuration not stated) | > 100 µM
COC(=O)CSSCc1ccc([N+](=O)[O-])cc1 | 46.4 µM
NS(=O)(=O)OCCCCCCCOS(N)(=O)=O | 579 µM

Input line: Could you tell me which TGI is on file for `CCCC(CCN)(CCN)[N+](=O)[O-]` ?
Output line: > 100 µM

Input line: And then `Cn1nc(-c2ccccc2)c2c(/C=C/c3ccccc3)onc2c1=O` , what is it?
Output line: > 100 µM

Input line: And then `NNC(=O)c1cc(=O)[nH][nH]1` , what is it?
Output line: > 100 µM

###

# System: PC-3 prostate
# assay_method_text: NCI tumour cell line growth inhibition, 48 h
measurement_kind: TGI

These recorded examples may help you get a feel for the data.
COC(=O)c1ccc(Nc2nc3nc[nH]c3c(=O)[nH]2)cc1 | > 100 µM
CCOC(=O)c1cnc2c(C)cccc2c1Nc1ccc(C(C)=O)cc1 | > 100 µM
CN(C)CCNC(=O)c1cccc2c1Oc1c(cccc1[N+](=O)[O-])O2 | 12.5 µM
COC(=O)CSSCc1ccc([N+](=O)[O-])cc1 | 81 µM
COc1ccc(C(C2=C(O)COC2=O)c2cc3c(cc2O)OCO3)cc1OC (stereo unspecified) | > 100 µM
N=c1c2c(=N)n3c(nc2nc2n1-c1ccccc1Sc1ccccc1-2)sc1cc(Cl)ccc13 | > 100 µM
O=C1c2cn[nH]c2C(c2ccccc2)N1c1ccccc1 (stereo unspecified) | > 10 µM
O=C1/C=C/[C@@H](O)[C@@H]2C[C@@H](O)C[C@H]2/C=C/CCC[C@H](C(F)(F)F)O1 | > 100 µM

Input line: Could you tell me which TGI is on file for `CNc1ncc(-c2nnnn2-c2ccccc2)c(CN(C)C)n1` ?
Output line: > 100 µM

Input line: And then `CCN(CC)c1ccc(/C=C/C=C2C(=O)NC(=S)NC2=O)cc1` , what is it?
Output line: > 100 µM

Input line: And then `C/C1=C\C=C(\C(C)C)CC/C(C(=O)O)=C\CC/C(C)=C/CC1` , what is it?
Output line: 35.2 µM

###

# System: HOP-62 NSCLC
# assay_method_text: NCI tumour cell line growth inhibition, 48 h
measurement_kind: TGI

CN(C)c1cc[n+](-c2nc(/N=C(\[O-])C(F)(F)F)nc3c2ncn3C2CC(O)C(CO)O2)cc1 (stereo unspecified) | > 100 µM
CSC1NC(c2ccc(Cl)cc2)=C(C#N)C(=O)N1C1OCC(OC(C)=O)C(OC(C)=O)C1OC(C)=O (stereo unspecified) | > 100 µM
COC(=O)c1ccc(Nc2nc3nc[nH]c3c(=O)[nH]2)cc1 | > 100 µM
CN(C)/N=C1\CC(c2ccccc2)C(C#N)(C#N)C1(C#N)C#N (stereo unspecified) | 59 µM
CCOC(=O)Oc1ccc2c(c1)c(=O)c1c(NCCN(CC)CC)ccc3nnn2c31 | 7.22 µM
O=C1Cc2cc(C(=O)NC3C[C@H]4CC[C@@H](C3)N4S(=O)(=O)CC3CCN(CCCC(F)(F)F)CC3)c(Cl)cc2N1 (stereo partly specified) | > 100 µM
CCc1ccccc1NNc1cc(=O)[nH]c(=O)[nH]1 | 35.1 µM
CC(=O)N1CCn2c1nc1cc(Cl)ccc12 | 40 µM
O=C1/C=C/[C@@H](O)[C@@H]2C[C@@H](O)C[C@H]2/C=C/CCC[C@H](C(F)(F)F)O1 | > 100 µM
CCc1nc2ccc(NCCN(C)C)c3c(=O)c4ccccc4n1c23 | 5.12 µM

Input line: Could you tell me which TGI is on file for `CC1=C(C(=O)Nc2cc(F)c(F)cc2F)C(c2ccc([N+](=O)[O-])cc2)C(C(=O)Nc2cc(F)c(F)cc2F)=C(C)N1` ?
Output line: > 100 µM

Input line: And then `COc1cc(CCc2ccc(N)cc2)cc(OC)c1OC` , what is it?
Output line: > 100 µM

Input line: And then `CC(C)(C)C(C#N)(C#N)c1ccc(C(C#N)(C#N)C(C)(C)C)nn1` , what is it?
Output line: > 100 µM

Input line: And then `C#CCOc1ccc2ncnc(Nc3ccc(NC(=O)C=C)cc3)c2c1` , what is it?
Output line: > 100 µM
